FYI, the data here is from patent US9604989B2.

Each entry below lists one item and its recorded pIC50 value.
System: MCF-7 breast tumour cell line
Assay: Tumor cell proliferation assay (CellTiter-Glo), MCF-7
Type: cell-based
Details: Homo sapiens, MCF7, 72 h drug exposure, read-out: MCF-7 median IC50
Remember, pIC50 is on a log scale: it is -log10 of the molar concentration.

Guide cases for pIC50, answers given:
>>> measurement("NC1(c2ccc(-c3nc4c(-c5ncc[nH]5)cc(Cl)nn4c3-c3ccccc3)cc2)CCC1")
5.74
>>> measurement("COc1cc(-c2ccnn2C)c2nc(-c3ccc(C4(N)CCC4)cc3)c(-c3ccccc3)n2n1")
5.70
>>> measurement("Cc1c(C(N)=O)nn2c(-c3ccccc3)c(-c3ccc(C4(N)CCC4)cc3)nc2c1C")
6.96

Kindly consider the entry below.
Given the entry `CCOc1cc(C(=O)NC)nn2c(-c3ccccc3)c(-c3ccc(C4(N)CCC4)cc3)nc12` , report its measured pIC50.
6.62

====

Tested on: MCF-7 breast tumour cell line
Experiment: Tumor cell proliferation assay (CellTiter-Glo), MCF-7
Format: cell-based
Details: Homo sapiens, MCF7, 72 h drug exposure, read-out: MCF-7 median IC50
endpointLabel: pIC50
Remember, pIC50 is on a log scale: it is -log10 of the molar concentration.

Guide cases for pIC50, answers given:
>>> measurement("CSc1ccc2nc(-c3ccc(C4(N)CCC4)cc3)c(-c3ccccc3)n2n1")
5.77
>>> measurement("CS(=O)(=O)c1ccc2nc(-c3ccc(C4(N)CCC4)cc3)c(-c3ccccc3)n2n1")
6.29
>>> measurement("Cn1nccc1-c1cc(Cl)nn2c(-c3ccccc3)c(-c3ccc(C4(N)CCC4)cc3)nc12")
5.68

Kindly consider the entry below.
Lookup: pIC50 / MCF-7 breast tumour cell line / `CNC(=O)c1cc(OCC2CC2)c2nc(-c3ccc(C4(N)CCC4)cc3)c(-c3ccccc3)n2n1`
6.82

====

Each entry below lists one item and its recorded IC50 value.
Test system: KPL-4 breast cancer cell line
Experiment: Tumor cell proliferation assay (CellTiter-Glo), KPL-4
Assay type: cell-based
Conditions: Homo sapiens, KPL4, 72 h drug exposure, read-out: KLP-4 median IC50
Field: numeric (nM). Do not append units.

Guide cases for IC50, answers given:
>>> measurement("COc1cc(OC)c2nc(-c3ccc(C4(N)CCC4)cc3)c(-c3ccccc3)n2n1")
770
>>> measurement("CCCc1ccnn2c(-c3ccccc3)c(-c3ccc(C4(N)CCC4)cc3)nc12")
1700

Kindly consider the entry below.
Lookup: IC50 / KPL-4 breast cancer cell line / `CNC(=O)c1ccnn2c(-c3ccccc3)c(-c3ccc(C4(N)CCC4)cc3)nc12`
1600

====

Test system: MCF-7 breast tumour cell line
Experiment: Tumor cell proliferation assay (CellTiter-Glo), MCF-7
Type: cell-based
Settings: Homo sapiens, MCF7, 72 h drug exposure, read-out: MCF-7 median IC50
endpointLabel: IC50 (nM)
Field: numeric (nM). Do not append units.

>>> measurement("Nc1ccnn2c(-c3ccccc3)c(-c3ccc(C4(N)CCC4)cc3)nc12 [Example 48]")
1300
>>> measurement("CCc1cc(OC)c2nc(-c3ccc(C4(N)CCC4)cc3)c(-c3ccccc3)n2n1 [Example 13]")
1100
>>> measurement("COc1cc(-c2cccnc2)c2nc(-c3ccc(C4(N)CCC4)cc3)c(-c3ccccc3)n2n1 [Example 14]")
1800
>>> measurement("CCCCOc1cc(OCC)nn2c(-c3ccccc3)c(-c3ccc(C4(N)CCC4)cc3)nc12 [Example 77]")
1700
>>> measurement("COc1ccc2nc(-c3ccc(C4(N)CCC4)cc3)c(-c3ccccc3)n2n1 [Example 6]")
1200

Lookup: IC50 / MCF-7 breast tumour cell line / NC1(c2ccc(-c3nc4c(-c5ccc(F)cc5)cc(-c5ccc(F)cc5)nn4c3-c3ccccc3)cc2)CCC1 [Example 42]
4200

Lookup: IC50 / MCF-7 breast tumour cell line / COC(=O)c1ccnn2c(-c3ccccc3)c(-c3ccc(C4(N)CCC4)cc3)nc12 [Example 31]
1400

Lookup: IC50 / MCF-7 breast tumour cell line / NC1(c2ccc(-c3nc4c(-c5cc[nH]n5)ccnn4c3-c3ccccc3)cc2)CCC1 [Example 27]
1800

====

Each entry below lists one item and its recorded pIC50 value.
Target: His-tagged human recombinant kinase full-length Akt1 (Homo sapiens (Human), UniProt P31749)
Sequence (P31749 whole entry): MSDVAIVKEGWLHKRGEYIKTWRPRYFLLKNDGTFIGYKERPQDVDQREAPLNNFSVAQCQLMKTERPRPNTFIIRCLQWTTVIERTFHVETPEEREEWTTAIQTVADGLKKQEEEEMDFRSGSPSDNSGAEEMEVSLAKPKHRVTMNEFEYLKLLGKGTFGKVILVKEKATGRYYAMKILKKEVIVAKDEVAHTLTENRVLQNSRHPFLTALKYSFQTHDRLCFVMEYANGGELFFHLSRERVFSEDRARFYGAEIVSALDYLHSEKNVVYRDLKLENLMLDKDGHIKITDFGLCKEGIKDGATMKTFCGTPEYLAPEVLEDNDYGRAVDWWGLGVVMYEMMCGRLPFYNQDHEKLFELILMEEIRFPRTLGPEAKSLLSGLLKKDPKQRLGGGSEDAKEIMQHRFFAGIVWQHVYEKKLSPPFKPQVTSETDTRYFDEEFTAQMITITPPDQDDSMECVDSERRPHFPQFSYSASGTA
Test: Akt1 kinase assay (Akt1 TR-FRET assay)
Conditions: 10 μM ATP, 60 min at 22° C., read-out: Akt1 median IC50
Remember, pIC50 is on a log scale: it is -log10 of the molar concentration.

>>> measurement("CNC(=O)c1ccnn2c(-c3ccccc3)c(-c3ccc(C4(N)CCC4)cc3)nc12")
7.34
>>> measurement("CCOc1cc(Cl)nn2c(-c3ccccc3)c(-c3ccc(C4(N)CCC4)cc3)nc12")
7.29
>>> measurement("CCc1cc(CC)c2nc(-c3ccc(C4(N)CCC4)cc3)c(-c3ccccc3)n2n1")
6.80
>>> measurement("CC(=O)Nc1ccc2nc(-c3ccc(C4(N)CCC4)cc3)c(-c3ccccc3)n2n1")
6.24
>>> measurement("NC1(c2ccc(-c3nc4c(-c5cc[nH]n5)cc(C(=O)O)nn4c3-c3ccccc3)cc2)CCC1")
7.24
>>> measurement("NC1(c2ccc(-c3nc4ccc(-c5ccc(F)cc5)nn4c3-c3ccccc3)cc2)CCC1")
6.16
>>> measurement("NC1(c2ccc(-c3nc4c(-c5cc[nH]n5)cc(C(=O)NCCO)nn4c3-c3ccccc3)cc2)CCC1")
7.96
>>> measurement("CNC(=O)c1ccc2nc(-c3ccc(C4(N)CCC4)cc3)c(-c3ccccc3)n2n1")
7.68
>>> measurement("NC1(c2ccc(-c3nc4c(OCc5ccccc5)cc(Cl)nn4c3-c3ccccc3)cc2)CCC1")
7.25
>>> measurement("COC(=O)c1cc(OC)c2nc(-c3ccc(C4(N)CCC4)cc3)c(-c3ccccc3)n2n1")
7.68

Given the entry `Cc1c(C(N)=O)nn2c(-c3ccccc3)c(-c3ccc(C4(N)CCC4)cc3)nc2c1C` , report its measured pIC50.
7.59

Given the entry `CCOc1cc(C(N)=O)nn2c(-c3ccccc3)c(-c3ccc(C4(N)CCC4)cc3)nc12` , report its measured pIC50.
8.39

Given the entry `CCOc1cc(C(=O)NC)nn2c(-c3ccccc3)c(-c3ccc(C4(N)CCC4)cc3)nc12` , report its measured pIC50.
8.10

Given the entry `C=Cc1cc(OC)c2nc(-c3ccc(C4(N)CCC4)cc3)c(-c3ccccc3)n2n1` , report its measured pIC50.
7.07

Given the entry `COC(=O)c1cc(-c2cc[nH]n2)c2nc(-c3ccc(C4(N)CCC4)cc3)c(-c3ccccc3)n2n1` , report its measured pIC50.
8.18

Given the entry `CCc1ccc2nc(-c3ccc(C4(N)CCC4)cc3)c(-c3ccccc3)n2n1` , report its measured pIC50.
7.19

====

Biological target: His-tagged human recombinant kinase full-length Akt2 (Homo sapiens (Human), UniProt P31751)
Sequence (P31751 whole entry): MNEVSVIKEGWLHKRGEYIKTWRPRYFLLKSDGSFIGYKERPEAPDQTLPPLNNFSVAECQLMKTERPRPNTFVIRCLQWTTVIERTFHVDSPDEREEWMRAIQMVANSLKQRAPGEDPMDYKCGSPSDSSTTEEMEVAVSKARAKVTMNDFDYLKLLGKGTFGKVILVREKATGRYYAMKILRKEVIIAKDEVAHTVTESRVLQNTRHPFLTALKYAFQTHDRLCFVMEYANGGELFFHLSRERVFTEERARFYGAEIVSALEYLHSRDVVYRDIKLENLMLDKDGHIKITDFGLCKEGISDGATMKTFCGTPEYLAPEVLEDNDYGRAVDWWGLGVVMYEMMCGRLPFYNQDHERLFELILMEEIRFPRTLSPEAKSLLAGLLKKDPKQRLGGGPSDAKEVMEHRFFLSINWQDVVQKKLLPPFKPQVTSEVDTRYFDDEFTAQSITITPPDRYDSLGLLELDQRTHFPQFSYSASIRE
Assay: Akt2 kinase assay (Akt2 TR-FRET assay)
Settings: 10 μM ATP, 60 min at 22° C., read-out: Akt2 median IC50
Each entry below lists one item and its recorded pIC50 value.
Remember, pIC50 is on a log scale: it is -log10 of the molar concentration.

Guide cases for pIC50, answers given:
>>> measurement("NC1(c2ccc(-c3nc4cccnn4c3-c3ccccc3)cc2)CCC1")
6.80
>>> measurement("NC1(c2ccc(-c3nc4c(-c5cc[nH]n5)cc(C(=O)NCCO)nn4c3-c3ccccc3)cc2)CCC1")
7.70
>>> measurement("COC(=O)c1ccnn2c(-c3ccccc3)c(-c3ccc(C4(N)CCC4)cc3)nc12")
6.85
>>> measurement("COc1ccnn2c(-c3ccccc3)c(-c3ccc(C4(N)CCC4)cc3)nc12")
6.96
>>> measurement("NC1(c2ccc(-c3nc4c(C5CC5)cc(Cl)nn4c3-c3ccccc3)cc2)CCC1")
7.07
>>> measurement("COC(=O)c1nn2c(-c3ccccc3)c(-c3ccc(C4(N)CCC4)cc3)nc2c(C)c1C")
7.09

Given the entry `COc1cc(-c2cccnc2)c2nc(-c3ccc(C4(N)CCC4)cc3)c(-c3ccccc3)n2n1` , report its measured pIC50.
7.19

Given the entry `Cn1nccc1-c1cc(Cl)nn2c(-c3ccccc3)c(-c3ccc(C4(N)CCC4)cc3)nc12` , report its measured pIC50.
6.72

Given the entry `COc1ccc2nc(-c3ccc(C4(N)CCC4)cc3)c(-c3ccccc3)n2n1` , report its measured pIC50.
7.10

Given the entry `NC1(c2ccc(-c3nc4c(-c5cc[nH]n5)ccnn4c3-c3ccccc3)cc2)CCC1` , report its measured pIC50.
7.54

Given the entry `CCOc1cc(Cl)nn2c(-c3ccccc3)c(-c3ccc(C4(N)CCC4)cc3)nc12` , report its measured pIC50.
7.24

Given the entry `C=Cc1cc(-c2cc[nH]n2)c2nc(-c3ccc(C4(N)CCC4)cc3)c(-c3ccccc3)n2n1` , report its measured pIC50.
6.77

Given the entry `NC1(c2ccc(-c3nc4c(-c5ccc(F)cc5)cc(-c5ccc(F)cc5)nn4c3-c3ccccc3)cc2)CCC1` , report its measured pIC50.
4.70

Given the entry `CC(=O)Nc1ccnn2c(-c3ccccc3)c(-c3ccc(C4(N)CCC4)cc3)nc12` , report its measured pIC50.
6.92

Given the entry `Cc1ccc2nc(-c3ccc(C4(N)CCC4)cc3)c(-c3ccccc3)n2n1` , report its measured pIC50.
6.42

Given the entry `CCOc1ccc2nc(-c3ccc(C4(N)CCC4)cc3)c(-c3ccccc3)n2n1` , report its measured pIC50.
6.64

Given the entry `CNC(=O)c1ccc2nc(-c3ccc(C4(N)CCC4)cc3)c(-c3ccccc3)n2n1` , report its measured pIC50.
7.18
